# Tested on: Colo205 (doxorubicin-sensitive human colon adenocarcinoma cell line)
# test.protocol: MTT assay, cytotoxic effect on Colo205
# Type: cell-based
# assay.conditions: COLO 205, 24 h incubation, Table 2
observable: pIC50
One number for each entry, as −log10 of the molar value.

COc1cccc2c1C(=O)c1c(O)c3c(c(O)c1C2=O)C[C@@](O)(C(=O)CO)C[C@@H]3O[C@H]1C[C@H](N)[C@H](O)[C@H](C)O1 [DOX, Doxorubicin, reference compound] : 5.49
C=C1C(=O)O[C@H]2[C@H]1[C@@H](O)CC(=C)[C@@H]1CC(=O)[C@@H](C)[C@H]21 : 4.63

Would you mind listing pIC50 for each of the following compounds?
1. C=C1C(=O)O[C@H]2[C@H]1[C@@H](OC(C)=O)CC(=C)[C@@H]1C[C@H](OC(C)=O)[C@@H](C)[C@H]21
2. C=C1C(=O)O[C@H]2[C@H]1[C@@H](O)CC(=C)[C@@H]1C[C@H](O)[C@@H](C)[C@H]21

5.09
4.20

I'm curious: which pIC50 was measured for C=C1C(=O)O[C@H]2[C@H]1[C@@H](OC(C)=O)CC(=C)[C@@H]1CC(=O)[C@@H](C)[C@H]21 tested on Colo205 (doxorubicin-sensitive human colon adenocarcinoma cell line)?
5.09
